Sourced from patent US12673050B2

TEST METHOD NOTES: Human hepatocyte stability
Format: in vitro ADME
CONDITION INFO: cryopreserved hepatocytes; mixed human hepatocyte suspension, 37° C.; read-out: intrinsic clearance (CLint) in human hepatocytes
ASSAY ENDPOINT: hepatocyte CLint

O=C(O)[C@H]1CCCN(S(=O)(=O)c2ccccc2C(F)(F)F)C1 < 3 µL/min/1e6 cells

// moving on: another record for hepatocyte CLint
GET /value?item= `O=C(O)[C@@H]1CCCN(S(=O)(=O)c2ccccc2C(F)(F)F)C1` &field=hepatocyte CLint returns < 3 µL/min/1e6 cells

* * *

TEST METHOD NOTES: Pharmacokinetics in mice (blood, UPLC-MS/MS)
Type: in vivo, mouse
CONDITION INFO: mouse, whole blood; male C57Bl/6 mice, intravenously 2 mg/kg or orally 10 mg/kg, blood; read-out: Observed clearance
ASSAY ENDPOINT: clearance (mL/min/kg)

I = O=C(O)[C@H]1CCCN(S(=O)(=O)c2ccccc2C(F)(F)F)C1
II = O=C(O)[C@@H]1CCCN(S(=O)(=O)c2ccccc2C(F)(F)F)C1
Task: Lowest clearance? choose I or II Respond with the label that goes with your answer.
Output: I
(I: 4.7 mL/min/kg, II: 8.2 mL/min/kg)
